ASSAY SYSTEM: mGluR5 receptors (Rattus norvegicus)
Construct: Primary astrocyte cultures are prepared from cortices of newborn rats; endogenous in cells; host or cells: primary cortical astrocytes from Sprague-Dawley rat pups (2-4 d old)
Sequence (P31424 21-1203): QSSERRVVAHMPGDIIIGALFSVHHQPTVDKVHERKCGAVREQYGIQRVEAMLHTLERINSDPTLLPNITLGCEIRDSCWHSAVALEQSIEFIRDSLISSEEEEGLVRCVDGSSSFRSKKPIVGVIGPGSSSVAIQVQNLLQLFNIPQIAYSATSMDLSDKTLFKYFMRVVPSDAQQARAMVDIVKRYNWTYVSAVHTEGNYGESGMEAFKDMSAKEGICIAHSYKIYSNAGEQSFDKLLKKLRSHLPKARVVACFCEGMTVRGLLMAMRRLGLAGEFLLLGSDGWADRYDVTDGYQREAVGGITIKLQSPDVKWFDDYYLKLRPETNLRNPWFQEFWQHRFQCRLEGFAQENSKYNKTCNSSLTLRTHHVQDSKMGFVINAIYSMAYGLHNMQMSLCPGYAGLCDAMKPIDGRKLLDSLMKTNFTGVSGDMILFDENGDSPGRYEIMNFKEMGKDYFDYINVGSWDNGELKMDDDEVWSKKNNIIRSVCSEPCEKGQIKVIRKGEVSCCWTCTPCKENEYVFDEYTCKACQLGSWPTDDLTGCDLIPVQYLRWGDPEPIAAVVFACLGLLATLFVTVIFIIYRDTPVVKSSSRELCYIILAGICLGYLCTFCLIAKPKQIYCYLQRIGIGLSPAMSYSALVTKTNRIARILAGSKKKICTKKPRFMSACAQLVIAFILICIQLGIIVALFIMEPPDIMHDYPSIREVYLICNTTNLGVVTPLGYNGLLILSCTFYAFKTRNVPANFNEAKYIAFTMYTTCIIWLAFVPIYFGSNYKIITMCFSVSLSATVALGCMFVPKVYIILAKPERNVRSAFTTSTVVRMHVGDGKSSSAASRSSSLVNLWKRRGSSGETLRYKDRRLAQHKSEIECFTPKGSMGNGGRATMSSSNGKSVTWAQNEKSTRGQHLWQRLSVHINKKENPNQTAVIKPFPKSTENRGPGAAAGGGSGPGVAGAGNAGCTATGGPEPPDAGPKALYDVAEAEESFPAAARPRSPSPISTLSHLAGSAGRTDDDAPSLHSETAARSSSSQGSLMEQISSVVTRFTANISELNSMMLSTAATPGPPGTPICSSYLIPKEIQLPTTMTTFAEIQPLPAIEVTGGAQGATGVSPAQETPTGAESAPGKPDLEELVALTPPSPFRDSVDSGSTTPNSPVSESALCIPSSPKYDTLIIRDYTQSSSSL
TEST: Cytosolic calcium studies with astrocytes (FLIPR), functional assay of mGluR5 receptors
Assay type: cell-based
CONDITION CONTEXT: Table A1, positive modulators, fixed concentration of quisqualate (normally 10-30 nM), read-out: rEC50
PARAMETER MEASURED: EC50 (nM)

// below: answered molecules
COC1CCCc2ncc(C#Cc3ccccc3)cc21 (racemic) [Example 1] : 22.7
CC(C)CN1CCO[C@@H]2c3cc(C#Cc4ccccc4)cnc3CC[C@@H]21 (racemic) : 132

I = O=C(Oc1ccccc1)N1CCc2ncc(C#Cc3ccccc3)cc2C1
II = O=C(N1CCC1)N1CCO[C@@H]2c3cc(C#Cc4ccccc4)cnc3CC[C@@H]21 (racemic)
Prompt line: Please indicate which has the smaller reported EC50: I , or II . Label of pick, please.
Response line: I

* * *

Recorded h left shift by entry
ASSAY SYSTEM: human metabotropic glutamate receptor mGluR5 (Homo sapiens, UniProt P41594)
Construct: expressed in transfected cells; host or cells: CHO-K1 (h5CHO), IPTG-inducible
Sequence (P41594 21-1212): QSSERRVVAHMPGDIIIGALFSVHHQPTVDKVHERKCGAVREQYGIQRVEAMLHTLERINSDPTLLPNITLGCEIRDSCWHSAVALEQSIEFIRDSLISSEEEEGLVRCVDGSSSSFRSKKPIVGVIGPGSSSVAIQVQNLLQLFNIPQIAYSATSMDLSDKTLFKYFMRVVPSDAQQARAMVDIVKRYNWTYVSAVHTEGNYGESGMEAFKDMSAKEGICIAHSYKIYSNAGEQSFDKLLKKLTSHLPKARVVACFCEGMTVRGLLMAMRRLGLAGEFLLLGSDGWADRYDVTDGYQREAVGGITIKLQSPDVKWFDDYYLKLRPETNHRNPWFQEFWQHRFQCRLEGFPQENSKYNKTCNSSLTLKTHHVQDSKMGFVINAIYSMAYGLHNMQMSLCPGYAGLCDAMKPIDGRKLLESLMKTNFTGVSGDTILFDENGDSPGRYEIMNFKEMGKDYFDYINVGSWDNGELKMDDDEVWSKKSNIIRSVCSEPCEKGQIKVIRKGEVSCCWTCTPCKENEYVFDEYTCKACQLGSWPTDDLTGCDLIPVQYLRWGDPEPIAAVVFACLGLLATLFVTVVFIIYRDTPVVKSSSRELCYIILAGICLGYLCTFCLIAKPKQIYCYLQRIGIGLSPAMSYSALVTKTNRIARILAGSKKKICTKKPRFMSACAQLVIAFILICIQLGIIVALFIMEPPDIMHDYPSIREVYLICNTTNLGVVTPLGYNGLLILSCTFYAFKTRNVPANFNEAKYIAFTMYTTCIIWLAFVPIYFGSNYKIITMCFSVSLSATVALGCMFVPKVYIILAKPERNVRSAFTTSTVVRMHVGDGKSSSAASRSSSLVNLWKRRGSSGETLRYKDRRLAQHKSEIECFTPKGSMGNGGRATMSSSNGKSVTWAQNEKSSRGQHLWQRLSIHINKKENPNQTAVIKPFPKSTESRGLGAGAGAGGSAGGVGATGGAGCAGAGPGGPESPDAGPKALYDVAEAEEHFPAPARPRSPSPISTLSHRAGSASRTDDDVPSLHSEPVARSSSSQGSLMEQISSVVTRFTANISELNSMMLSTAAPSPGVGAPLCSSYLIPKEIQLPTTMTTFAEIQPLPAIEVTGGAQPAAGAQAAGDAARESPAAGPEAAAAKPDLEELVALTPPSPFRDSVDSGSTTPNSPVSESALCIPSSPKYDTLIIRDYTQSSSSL
TEST: Cytosolic calcium studies with stably transfected cells (h5CHO), functional assay of mGluR5 receptors
Type: cell-based
CONDITION CONTEXT: Table A1; left shift of agonist EC50, dose response curves in the presence of 10 µM modulator or vehicle; h5CHO cells

// below: answered molecules
CC(C)CN1CCO[C@@H]2c3cc(C#Cc4ccccc4)cnc3CC[C@@H]21 (racemic) : 5.3-fold
O=S(=O)(N1CCOCC1)N1CCc2ncc(C#Cc3ccccc3)cc2C1 : 2.7-fold
CC(C)(C)C(=O)N1CCc2ncc(C#Cc3ccccc3)cc2C1 : 2.3-fold
O=C(N1CCc2ncc(C#Cc3ccccc3)cc2C1)N(CC(F)(F)F)CC(F)(F)F : 1.7-fold
O=C1OC2(CCCc3ncc(C#Cc4ccccc4)cc32)CN1c1ccccc1 (racemic) : 1.9-fold
CCCN1CCO[C@@H]2c3cc(C#Cc4ccccc4F)cnc3CC[C@@H]21 (racemic) : 2.6-fold
CCCN1CCO[C@@H]2c3cc(C#Cc4ccccc4)cnc3CC[C@@H]21 (racemic) [Example 15] : 3.2-fold
COC1CCCc2ncc(C#Cc3ccccc3)cc21 (racemic) [Example 1] : 2.6-fold
COC(=O)N1CC[C@H]2c3ncc(C#Cc4cccc(F)c4)cc3CC[C@H]21 : 1.7-fold

Prompt line: Reported h left shift for COC(=O)N1CC2CCc3ncc(C#Cc4cccc(F)c4)cc3C2C1 (stereo not shown) : what is it?
Response line: 2.6-fold

* * *

ASSAY SYSTEM: UniProt:P41594
TEST: Cytosolic calcium studies with stably transfected cells (h5CHO), functional assay of mGluR5 receptors
CONDITION CONTEXT: Table A2; negative modulation; compounds added 5 minutes before L-quisqualic acid (~80% of the maximal signal); h5CHO cells; read-out: hIC50
pIC50: −log10 of the molar value.
PARAMETER MEASURED: pIC50

CC(C)(C)C(=O)N1CCc2ncc(C#Cc3cccc(N)n3)cc2C1 : 6.21
COC1CC(C)(C)Cc2ncc(C#Cc3cccc(N)n3)cc21 (racemic) : 7.18
CCN(CC)C(=O)N1CCc2ncc(C#Cc3cccc(C#N)c3)cc2C1 : 6.71
CN(C)C(=O)N1CCc2ncc(C#Cc3ccccc3)cc2C1 : 6.61

1 = CN(C)C(=O)N1CCc2ncc(C#Cc3cccc(N)n3)cc2C1
2 = COC(=O)N1Cc2cc(C#Cc3ccccc3)cnc2[C@H]2CCCC[C@H]21 (racemic)
3 = CN(C)C(=O)N1CCc2ncc(C#Cc3cccc(F)c3)cc2C1
4 = COC1CCCc2ncc(C#Cc3cccc(N)n3)cc21 (racemic)
5 = COC1CC(C)(C)Cc2ncc(C#Cc3cn4ccccc4n3)cc21 (racemic)
Prompt line: # ascending order, key=pIC50 Give me the labels in the order the question wants.
Response line: 4, 2, 5, 1, 3

* * *

ASSAY SYSTEM: human metabotropic glutamate receptor mGluR5 (Homo sapiens, UniProt P41594)
Construct: expressed in transfected cells; host or cells: CHO-K1 (h5CHO), IPTG-inducible
TEST: Cytosolic calcium studies with stably transfected cells (h5CHO), functional assay of mGluR5 receptors
Assay type: cell-based
CONDITION CONTEXT: Table A1; left shift of agonist EC50, dose response curves in the presence of 10 µM modulator or vehicle; h5CHO cells
Recorded h left shift by entry

// below: answered compounds
O=C(N1CCC1)N1CCO[C@@H]2c3cc(C#Cc4ccccc4)cnc3CC[C@@H]21 (racemic) : 1.8-fold
COC(=O)N1CC[C@H]2c3ncc(C#Cc4ccccc4)cc3CC[C@H]21 : 2.2-fold
CN1CCO[C@@H]2c3cc(C#Cc4ccccc4)cnc3CC[C@@H]21 (racemic) : 1.7-fold

For the next question, use this compound.
Prompt line: Reported h left shift for CCCN1CCO[C@@H]2c3cc(C#Cc4cccc(F)c4)cnc3CC[C@@H]21 (racemic) : what is it?
Response line: 1.9-fold

* * *

ASSAY SYSTEM: mGluR5 receptors (Rattus norvegicus)
Construct: Primary astrocyte cultures are prepared from cortices of newborn rats; endogenous in cells; host or cells: primary cortical astrocytes from Sprague-Dawley rat pups (2-4 d old)
TEST: Cytosolic calcium studies with astrocytes (FLIPR), functional assay of mGluR5 receptors
Format: cell-based
CONDITION CONTEXT: Table A3 (SAMs / very weak PAMs), quisqualate EC50 shift with 10 µM modulator
Recorded r left shift by entry

COC(=O)N1CC[C@H]2CCc3ncc(C#Cc4ccccc4)cc3[C@H]21 (racemic) : 0.8-fold
CCCN1CCO[C@@H]2c3cc(C#Cc4cccc(C)c4)cnc3CC[C@@H]21 (racemic) : 1.9-fold

For the next question, use this molecule.
Prompt line: Checklist item: r left shift tested on mGluR5 receptors (Rattus norvegicus), entry CCCN1CC2(CCCc3ncc(C#Cc4cccc(F)c4)cc32)OC1=O (racemic) , value?
Response line: 1.3-fold

* * *

ASSAY SYSTEM: mGluR5 binding site (Rattus norvegicus, UniProt P31424)
TEST: [3H]-M-MPEP displacement studies on rat cortical membranes
CONDITION CONTEXT: Table A3, [3H]-M-MPEP 2 nM, 4°C for 1 h, median, read-out: Ki (MMPEP)
PARAMETER MEASURED: Ki (nM)

1 = CCCN1CC2(CCCc3ncc(C#Cc4cccc(F)c4)cc32)OC1=O (racemic)
2 = CCCN1CCO[C@@H]2c3cc(C#Cc4ccccc4)cnc3CC[C@@H]21 (single isomer, unassigned)
Prompt line: Please indicate which has the smaller reported Ki: 1 , or 2 . Label of pick, please.
Response line: 1

I = COC(=O)N1CC[C@H]2CCc3ncc(C#Cc4ccccc4)cc3[C@H]21 (racemic)
II = CCOC(=O)N1CCc2ncc(C#Cc3ccccc3)cc2C1
Prompt line: Of I and II , whose reported Ki is the larger number? Label of pick, please.
Response line: I
(I: 289 nM, II: 56.5 nM)

* * *

ASSAY SYSTEM: human metabotropic glutamate receptor mGluR5 (Homo sapiens)
Construct: expressed in transfected cells; host or cells: CHO-K1 (h5CHO), IPTG-inducible
TEST: Cytosolic calcium studies with stably transfected cells (h5CHO), functional assay of mGluR5 receptors
Type: cell-based
CONDITION CONTEXT: Table A3 (SAMs / very weak PAMs); agonist EC50 shift with 10 µM modulator or vehicle; h5CHO cells
Recorded h left shift by entry

COC1CCCc2ncc(C#Cc3ccccc3)cc21 (single isomer, unassigned) : 2.3-fold

Prompt line: Checklist item: h left shift tested on human metabotropic glutamate receptor mGluR5 (Homo sapiens), entry COC(=O)N1CC[C@H]2CCc3cc(C#Cc4ccccc4)cnc3[C@H]21 (racemic) , value?
Response line: 1.5-fold

Prompt line: Same again, this time with CC(C)C(=O)N1CCc2ncc(C#Cc3ccccc3)cc2C1
Response line: 1.4-fold

Prompt line: Same again, this time with O=C1OC2(CCCc3ncc(C#Cc4cccc(F)c4)cc32)CN1C1CC1 (racemic)
Response line: 1.6-fold

Prompt line: Same again, this time with CCCN1CC2(CCCc3ncc(C#Cc4cccc(C)c4)cc32)OC1=O (racemic)
Response line: 1.2-fold

Prompt line: Same again, this time with CCCN1CCO[C@@H]2c3cc(C#Cc4ccccc4)cnc3CC[C@@H]21 (single isomer, unassigned)
Response line: 2.3-fold

Prompt line: Same again, this time with CCOC(=O)N1CCc2ncc(C#Cc3ccccc3)cc2C1
Response line: 1.3-fold

Prompt line: Same again, this time with CCCN1CCO[C@@H]2c3cc(C#Cc4cccc(C)c4)cnc3CC[C@@H]21 (racemic)
Response line: 1.3-fold

Prompt line: Same again, this time with CC(C)S(=O)(=O)N1CCc2ncc(C#Cc3ccccc3)cc2C1
Response line: 1.5-fold

Prompt line: Same again, this time with CCCN1CC2(CCCc3ncc(C#Cc4cccc(F)c4)cc32)OC1=O (racemic)
Response line: 1.6-fold

Prompt line: Same again, this time with COC(=O)N1CC[C@H]2CCc3ncc(C#Cc4ccccc4)cc3[C@H]21 (racemic)
Response line: 1.3-fold
